- MEASUREMENT TARGET: human TGFßRII (antigen of the Octet experiments) (human, UniProt P37173 23-166)
- Sequence (P37173 23-166): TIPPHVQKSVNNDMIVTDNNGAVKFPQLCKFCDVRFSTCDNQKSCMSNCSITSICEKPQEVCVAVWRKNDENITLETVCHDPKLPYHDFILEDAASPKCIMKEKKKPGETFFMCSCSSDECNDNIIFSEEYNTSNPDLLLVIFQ
- ASSAY INFO: BLI (Octet)
Recorded pKd for the following binders
Quick note: pKd values are minus log10 of concentrations in mol/L.

BINDER: H1.69 L1 XENP34525 (antibody, V domains shown) VH: QLQVQESGPGLVKPSETLSLTCTVSGGSISNSYFSWGWIRQPPGKGLEWIGSFYYGEKTYYNPSLQSRATISIDTSKSQFSLKLSSVTAADTAVYYCPRGPTMIRGVIDSWGQGTLVTVSS VL: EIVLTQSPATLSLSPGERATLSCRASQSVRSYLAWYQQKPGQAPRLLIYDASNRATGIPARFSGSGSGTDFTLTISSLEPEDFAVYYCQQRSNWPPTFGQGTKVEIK
QUANTITY NAME: pKd
REPORTED RESULT: 8.85

Provide only the value of recorded pKd for H1.39 L1 XENP34495 (antibody, V domains shown) VH: QLQVQESGPGLVKPSETLSLTCTVSGGSISNSYFSWGWIRQHPGKGLEWIGSFYYGEKTYYNPSLKSRATISIDTSKSQFSLKLSSVTAADTAVYYCPRGPTMIRGVIDSWGQGTLVTVSS VL: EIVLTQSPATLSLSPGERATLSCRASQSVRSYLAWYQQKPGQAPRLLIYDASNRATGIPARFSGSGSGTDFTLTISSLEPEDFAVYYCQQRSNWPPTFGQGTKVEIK
9.37

Assign pKd to the following record: H1.41 L1 XENP34497 (antibody, V domains shown) VH: QLQVQESGPGLVKPSETLSLTCTVSGGSISNSYFSWGWIRQPPGKGLEWIGEFYYGEKTYYNPSLKSRATISIDTSKSQFSLKLSSVTAADTAVYYCPRGPTMIRGVIDSWGQGTLVTVSS VL: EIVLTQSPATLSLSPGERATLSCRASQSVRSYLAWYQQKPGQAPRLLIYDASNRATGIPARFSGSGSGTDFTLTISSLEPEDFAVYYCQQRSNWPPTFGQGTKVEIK
7.72

Give the value of pKd reported for the following: H1.57 L1 XENP34513 (antibody, V domains shown) VH: QLQVQESGPGLVKPSETLSLTCTVSGGSISNSYFSWGWIRQPPGKGLEWIGSFYYGSKTYYNPSLKSRATISIDTSKSQFSLKLSSVTAADTAVYYCPRGPTMIRGVIDSWGQGTLVTVSS VL: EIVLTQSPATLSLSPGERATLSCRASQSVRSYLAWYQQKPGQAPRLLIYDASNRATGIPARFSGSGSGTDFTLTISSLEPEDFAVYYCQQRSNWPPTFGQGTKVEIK
8.11

Give the reported pKd for this binder. H1.44 L1 XENP34500 (antibody, V domains shown) VH: QLQVQESGPGLVKPSETLSLTCTVSGGSISNSYFSWGWIRQPPGKGLEWIGVFYYGEKTYYNPSLKSRATISIDTSKSQFSLKLSSVTAADTAVYYCPRGPTMIRGVIDSWGQGTLVTVSS VL: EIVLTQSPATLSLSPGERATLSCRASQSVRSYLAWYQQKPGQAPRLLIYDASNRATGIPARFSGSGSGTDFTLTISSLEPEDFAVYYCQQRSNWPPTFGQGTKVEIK
8.53

Value source: patent US20220144956A1
